Data provenance: patent US20170283425A1

ASSAY SYSTEM: CypD (Homo sapiens)
pKd: −log10 of the molar value.
In this section we review reported pKd values for a set of compounds.

[[record]]
compound = "CSc1ccccc1[C@H]1CCCN1C(=O)CCC(=O)NCc1ccc2c(c1)[C@H]1C[C@@H](N2)[C@H](O)CO1"
observed_value = "> 6.00"

[[record]]
compound = "CCN1Cc2cc(CCC(=O)NCC(=O)N3CCCC4(CCCCC4)C3)ccc2NCCC1=O"
observed_value = "4.00 to 6.00"

[[record]]
compound = "CSc1ccccc1[C@H]1CCCN1C(=O)CNC(=O)CCc1ccc2c(c1)[C@@H]1C[C@H](N2)[C@H](O)CO1"
observed_value = "4.00 to 6.00"

[[record]]
compound = "CCN1Cc2cc(CCC(=O)NCC(=O)N3CCC[C@@H]3c3ccccc3SC)ccc2NCCC1=O"
observed_value = "4.00 to 6.00"

[[record]]
compound = "CCN1Cc2cc(CNC(=O)NCC(=O)N3CCC[C@@H]3C(F)(F)F)ccc2NCCC1=O"
observed_value = "4.00 to 6.00"

[[record]]
compound = "O=C(NCC(=O)N1CCCC1c1ccccn1)NCc1ccc2c(c1)[C@H]1C[C@@H](N2)[C@H](O)CO1 (stereo partly shown)"
observed_value = "> 6.00"


Q: Supply measured pKd of CCN1Cc2cc(CCC(=O)NCC(=O)N3CCC[C@@H]3C(F)(F)F)ccc2NCCC1=O in your reply.
Result: 4.00 to 6.00

----------
Recorded IC50 values for a group of compounds are listed next.
ASSAY SYSTEM: CypD (Homo sapiens, UniProt P30405)
Sequence (P30405 30-207): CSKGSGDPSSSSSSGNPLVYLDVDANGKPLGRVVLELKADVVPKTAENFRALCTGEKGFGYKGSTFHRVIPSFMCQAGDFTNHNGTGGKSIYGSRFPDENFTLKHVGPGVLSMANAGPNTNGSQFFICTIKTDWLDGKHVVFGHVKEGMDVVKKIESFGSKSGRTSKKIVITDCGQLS
PROCEDURE TEXT: CypD binding assay (competition fluorescence polarisation with fluorescein-labelled cyclosporin)

Examples with their reported IC50 follow.
[[record]]
compound = "CCN1Cc2cc(CCC(=O)NCC(=O)N3CCCC4(CCCCC4)C3)ccc2NCCC1=O"
observed_value = "1 to 100 µM"

[[record]]
compound = "O=C(NCC(=O)N1CCC[C@@H]1C(F)(F)F)NCc1ccc2c(c1)[C@@H]1C[C@H](N2)[C@H](O)CO1"
observed_value = "1 to 100 µM"

[[record]]
compound = "CSc1ccccc1[C@H]1CCCN1C(=O)CN(C)C(=O)NCc1ccc2c(c1)[C@H]1C[C@@H](N2)[C@H](O)CO1"
observed_value = "1 to 100 µM"

[[record]]
compound = "CCN1Cc2cc(CNC(=O)NCC(=O)N3CCCC3c3ccccn3)ccc2NCCC1=O (stereo not shown)"
observed_value = "1 to 100 µM"

[[record]]
compound = "CSc1ccccc1[C@H]1CCCN1C(=O)CCC(=O)NCc1ccc2c(c1)[C@H]1C[C@@H](N2)[C@H](O)CO1"
observed_value = "< 1 µM"


Q: In one line, give reported IC50 of the entry CSc1ccccc1[C@H]1CCCN1C(=O)CNC(=O)NC(C)c1ccc2c(c1)CCCC(=O)N2 (stereo partly shown) .
Result: 1 to 100 µM

Q: Quote IC50 reported for CCN1Cc2cc(CCC(=O)NCC(=O)N3CCCC3)ccc2NCCC1=O please.
Result: 1 to 100 µM

Q: Return reported IC50. Input compound: CCN1Cc2cc(CCC(=O)N[C@@H](CO)C(=O)N3CCCC3)ccc2NCCC1=O
Result: 1 to 100 µM

Q: Read the entry C[C@H](c1ccccc1)N(C)C(=O)CNC(=O)NCc1ccc2c(c1)[C@H]1C[C@@H](N2)[C@H](O)CO1 and write its reported IC50.
Result: 1 to 100 µM

Q: Look up and report measured IC50 for this entry: CCN1Cc2cc(CCC(=O)NCC(=O)N3CCC[C@@H]3c3ccccc3SC)ccc2NCCC1=O
Result: 1 to 100 µM

Q: Quote IC50 reported for O=C(NCC(=O)N1CCC[C@@H]1CO)NCc1ccc2c(c1)[C@H]1C[C@@H](N2)[C@H](O)CO1 please.
Result: 1 to 100 µM

Q: Read the entry CCN1Cc2cc(CCC(=O)N[C@H](C(=O)N3CCCC3)c3ccccc3)ccc2NCCC1=O and write its reported IC50.
Result: 1 to 100 µM

Q: Name the recorded IC50 of the compound listed here: O=C(NCC(=O)N1CCCC1)NCc1ccc2c(c1)[C@H]1C[C@@H](N2)[C@H](O)CO1
Result: 1 to 100 µM

Q: Please report the measured IC50 for O=C(NCC(=O)N1CCCC1c1ccccn1)NCc1ccc2c(c1)[C@H]1C[C@@H](N2)[C@H](O)CO1 (stereo partly shown)
Result: 1 to 100 µM

Q: For CCN1Cc2cc(CCC(=O)NCC(=O)N3CCC[C@@H]3CO)ccc2NCCC1=O , write its IC50.
Result: 1 to 100 µM

Q: For the compound CCN1Cc2cc(CNC(=O)NCC(=O)N(C)[C@H](C)c3ccccc3)ccc2NCCC1=O , give its reported IC50.
Result: 1 to 100 µM

----------
IC50 reference
ASSAY SYSTEM: CypD (Homo sapiens, UniProt P30405)
PROCEDURE TEXT: CypD binding assay (competition fluorescence polarisation with fluorescein-labelled cyclosporin)

[[record]]
compound = "CCN1Cc2cc(CCC(=O)NCC(=O)N3CCC[C@@H]3C(F)(F)F)ccc2NCCC1=O"
parameter = "IC50"
observed_value = "1000 to 100000 nM"

[[record]]
compound = "O=C(NCC(=O)N1CCCC1c1ccccc1C(F)(F)F)NCc1ccc2c(c1)[C@H]1C[C@@H](N2)[C@H](O)CO1 (stereo partly shown)"
parameter = "IC50"
observed_value = "< 1000 nM"

[[record]]
compound = "O=C(NCC(=O)N1CCCC1c1cccnc1)NCc1ccc2c(c1)[C@H]1C[C@@H](N2)[C@H](O)CO1 (stereo partly shown)"
parameter = "IC50"
observed_value = "1000 to 100000 nM"


Alright, here's another compound for you.
Q: Output IC50 of O=C(NCC(=O)N1CCC[C@H]1CO)NCc1ccc2c(c1)[C@H]1C[C@@H](N2)[C@H](O)CO1
Result: 1000 to 100000 nM

----------
ASSAY SYSTEM: UniProtKB P30405
PROCEDURE TEXT: CypD enzymatic assay (PPase-chymotrypsin coupled, suc-AAPF-p-NA substrate)
Assay type: biochemical
APPLIED CONDITIONS: colorimetric
pIC50: −log10 of the molar value.
PARAMETER: pIC50

Q: Indicate the recorded pIC50 value for this compound: O=C(NCC(=O)N1CCCC1)NCc1ccc2c(c1)[C@H]1C[C@@H](N2)[C@H](O)CO1
Result: 4.00 to 6.00

----------
ASSAY SYSTEM: CypD (Homo sapiens)
PROCEDURE TEXT: CypD binding assay (competition fluorescence polarisation with fluorescein-labelled cyclosporin)
pIC50: −log10 of the molar value.
Listing of recorded pIC50 by entry.

[[record]]
molecule = "CSc1ccccc1[C@H]1CCCN1C(=O)CNC(=O)CCc1ccc2c(c1)[C@@H]1C[C@H](N2)[C@H](O)CO1"
observed_value = "4.00 to 6.00"


Q: Write down pIC50 measured for item CCN1Cc2cc(CCC(=O)NCC(=O)N3CCCC3c3ccccn3)ccc2NCCC1=O (stereo not drawn)
Result: 4.00 to 6.00

Q: Using known records, supply pIC50 for O=C(NCC(=O)N1CCCC1c1ccccc1C(F)(F)F)NCc1ccc2c(c1)[C@@H]1C[C@H](N2)[C@H](O)CO1 (stereo partly drawn)
Result: 4.00 to 6.00

----------
The reader will find reported IC50 values listed item by item below.
ASSAY SYSTEM: CypD (Homo sapiens, UniProt P30405)
PROCEDURE TEXT: CypD binding assay (competition fluorescence polarisation with fluorescein-labelled cyclosporin)

Examples with their reported IC50 follow.
[[record]]
compound = "CCn1nnc(CNC(=O)NCc2ccc3c(c2)[C@H]2C[C@@H](N3)[C@H](O)CO2)n1"
assay_system = "CypD (Homo sapiens, UniProt P30405)"
observed_value = "1000 to 100000 nM"

[[record]]
compound = "CCN1Cc2cc(CNC(=O)NCC(=O)N3CCC[C@@H]3c3ccccc3SC)ccc2NCCC1=O"
assay_system = "CypD (Homo sapiens, UniProt P30405)"
observed_value = "< 1000 nM"

[[record]]
compound = "CCN1Cc2cc(CNC(=O)NCC(=O)N3CCC[C@@H]3C(F)(F)F)ccc2NCCC1=O"
assay_system = "CypD (Homo sapiens, UniProt P30405)"
observed_value = "1000 to 100000 nM"

[[record]]
compound = "CCN1Cc2cc(CCC(=O)NCC(=O)N3CCCC3c3ccccc3C(F)(F)F)ccc2NCCC1=O (centres unmarked)"
assay_system = "CypD (Homo sapiens, UniProt P30405)"
observed_value = "1000 to 100000 nM"

[[record]]
compound = "C[C@H](NC(=O)CCc1ccc2c(c1)[C@H]1C[C@@H](N2)[C@H](O)CO1)C(=O)N1CCCC1"
assay_system = "CypD (Homo sapiens, UniProt P30405)"
observed_value = "1000 to 100000 nM"


Q: # lookup: CypD (Homo sapiens, UniProt P30405) IC50, key = CSc1ccccc1[C@H]1CCCN1C(=O)CNC(=O)CCc1ccc2c(c1)[C@H]1C[C@@H](N2)[C@H](O)CO1
Result: < 1000 nM

Q: Answer briefly: IC50 recorded on CypD (Homo sapiens, UniProt P30405) for CN(C(=O)CNC(=O)NCc1ccc2c(c1)[C@H]1C[C@@H](N2)[C@H](O)CO1)C1CCCC1
Result: 1000 to 100000 nM

Q: Identify measured IC50 obtained with CypD (Homo sapiens, UniProt P30405) for CCN1Cc2cc(CCC(=O)NCC(=O)N3CCC[C@H]3CO)ccc2NCCC1=O .
Result: 1000 to 100000 nM
